What inhibition at 1000 µg/mL was measured for each of the following?
# Subject Of Test: BChE (Equus caballus)
# Construct: The enzyme AChE is derived from Electric eel and BChE from equine serum; from tissue; host or cells: equine serum
# Assay Method Text: Ellman's assay, BChE inhibition
# Format: biochemical
# Condition Parameters: Conc. 1000 µg/mL
Please state the figure in %; there is no need to write the unit.

# inhibition at 1000 µg/mL (molecule: S=C(Nc1ccccc1)Nc1ccc(Cl)cc1 [Compound 6, 1-(4-chlorophenyl)-3-phenylthiourea] ) is 71.3

# inhibition at 1000 µg/mL (molecule: S=C(Nc1cccc(Cl)c1)NC1CCCCC1 [Compound 3, 1-(3-chlorophenyl)-3-cyclohexylthiourea] ) is 76.7

# inhibition at 1000 µg/mL (molecule: CC(C)CNC(=S)NC1CCCCC1 [Compound 1, 1-isobutyl-3-cyclohexylthiourea] ) is 74.4

# inhibition at 1000 µg/mL (molecule: CC(C)(C)NC(=S)NC1CCCCC1 [Compound 2, 1-tert-butyl-3-cyclohexylthiourea] ) is 65.2

# inhibition at 1000 µg/mL (molecule: S=C(Nc1ccccc1)Nc1ccccc1Cl [Compound 5, 1-(2-chlorophenyl)-3-phenylthiourea] ) is 71.6

# inhibition at 1000 µg/mL (molecule: CCCCN(CCCC)C(=S)Nc1ccccc1 [Compound 4, 1-(1,1-dibutyl)-3-phenylthiourea] ) is 98

###

What inhibition at 250 µg/mL was measured for each of the following?
# Subject Of Test: AChE (Electrophorus electricus, UniProt O42275)
# Construct: The enzyme AChE is derived from Electric eel and BChE from equine serum; from tissue
# Sequence (O42275 24-633): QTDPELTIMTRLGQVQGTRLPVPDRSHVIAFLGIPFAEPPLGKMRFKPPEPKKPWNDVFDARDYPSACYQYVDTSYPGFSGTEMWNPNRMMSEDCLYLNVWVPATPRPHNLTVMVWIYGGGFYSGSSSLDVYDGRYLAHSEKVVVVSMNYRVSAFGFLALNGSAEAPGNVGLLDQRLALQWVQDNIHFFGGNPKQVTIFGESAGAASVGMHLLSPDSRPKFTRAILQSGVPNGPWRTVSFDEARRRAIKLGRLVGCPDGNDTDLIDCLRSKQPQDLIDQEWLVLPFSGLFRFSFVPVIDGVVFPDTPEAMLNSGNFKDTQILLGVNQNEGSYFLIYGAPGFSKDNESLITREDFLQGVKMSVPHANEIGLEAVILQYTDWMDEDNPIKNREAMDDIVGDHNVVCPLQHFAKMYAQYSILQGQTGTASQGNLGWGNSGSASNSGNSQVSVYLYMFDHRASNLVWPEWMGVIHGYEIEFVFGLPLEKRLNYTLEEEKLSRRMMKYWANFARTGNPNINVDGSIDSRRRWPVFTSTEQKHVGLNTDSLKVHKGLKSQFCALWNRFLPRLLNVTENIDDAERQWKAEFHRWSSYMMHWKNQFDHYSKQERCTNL
# Assay Method Text: biochemical
# Condition Parameters: Conc. 250 µg/mL
Please state the figure in %; there is no need to write the unit.

Observed inhibition at 250 µg/mL on AChE (Electrophorus electricus, UniProt O42275), entry S=C(Nc1ccccc1)Nc1ccc(Cl)cc1 [Compound 6, 1-(4-chlorophenyl)-3-phenylthiourea] , equals 47.9

Observed inhibition at 250 µg/mL on AChE (Electrophorus electricus, UniProt O42275), entry CCCCN(CCCC)C(=S)Nc1ccccc1 [Compound 4, 1-(1,1-dibutyl)-3-phenylthiourea] , equals 77.8

Observed inhibition at 250 µg/mL on AChE (Electrophorus electricus, UniProt O42275), entry CC(C)CNC(=S)NC1CCCCC1 [Compound 1, 1-isobutyl-3-cyclohexylthiourea] , equals 57.6

Observed inhibition at 250 µg/mL on AChE (Electrophorus electricus, UniProt O42275), entry S=C(Nc1ccccc1)Nc1ccccc1Cl [Compound 5, 1-(2-chlorophenyl)-3-phenylthiourea] , equals 41.7

Observed inhibition at 250 µg/mL on AChE (Electrophorus electricus, UniProt O42275), entry CC(C)(C)NC(=S)NC1CCCCC1 [Compound 2, 1-tert-butyl-3-cyclohexylthiourea] , equals 48

Observed inhibition at 250 µg/mL on AChE (Electrophorus electricus, UniProt O42275), entry S=C(Nc1cccc(Cl)c1)NC1CCCCC1 [Compound 3, 1-(3-chlorophenyl)-3-cyclohexylthiourea] , equals 61.4

###

# Subject Of Test: BChE (Equus caballus, UniProt P81908)
# Construct: The enzyme AChE is derived from Electric eel and BChE from equine serum; from tissue; host or cells: equine serum
# Sequence (P81908 whole entry): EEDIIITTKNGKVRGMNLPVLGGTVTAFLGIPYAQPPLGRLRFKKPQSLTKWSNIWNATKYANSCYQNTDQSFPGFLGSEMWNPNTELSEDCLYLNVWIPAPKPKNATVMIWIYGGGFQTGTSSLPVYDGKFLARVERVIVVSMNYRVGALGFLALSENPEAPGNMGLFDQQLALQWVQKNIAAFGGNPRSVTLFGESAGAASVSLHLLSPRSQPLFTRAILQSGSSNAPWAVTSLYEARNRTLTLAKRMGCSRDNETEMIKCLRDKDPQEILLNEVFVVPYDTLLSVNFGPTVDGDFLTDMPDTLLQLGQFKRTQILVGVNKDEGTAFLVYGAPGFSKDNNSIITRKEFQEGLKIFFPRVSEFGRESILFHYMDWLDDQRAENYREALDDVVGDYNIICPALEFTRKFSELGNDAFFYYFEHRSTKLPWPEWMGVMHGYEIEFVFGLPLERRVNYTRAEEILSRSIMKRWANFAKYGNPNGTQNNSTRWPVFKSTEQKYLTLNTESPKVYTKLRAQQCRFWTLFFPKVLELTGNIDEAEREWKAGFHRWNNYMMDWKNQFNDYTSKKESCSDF
# Assay Method Text: Ellman's assay, BChE inhibition
# Assay type: biochemical
# Condition Parameters: Conc. 125 µg/mL
# Experimental: The enzyme AChE is derived from Electric eel and BChE from equine serum. Buffer of phosphate, 0.1 M at pH 8.0 was prepared to whom varied concentration ([…]–1000 μg/mL) of the respective compound was added. […] Enzyme solution (5 μL), corresponding compound (205 μL), and DTNB reagent (5 μL) were mixed in a cuvette. […] Absorbance of the incubated sample was measured at 412 nm by a double-beam spectrophotometer (Thermo Electron Corporation, USA) for 4 min along with the reaction time at 30 °C. […]
Assign class by inhibition at 125 µg/mL: not lower than 40% means 1 (yes); lower than 40% means 0 (no).

Q: Given `S=C(Nc1cccc(Cl)c1)NC1CCCCC1` , state whether its inhibition at 125 µg/mL is at least 40%.
A: 1 (yes)

Q: Given `CC(C)(C)NC(=S)NC1CCCCC1` , state whether its inhibition at 125 µg/mL is at least 40%.
A: 1 (yes)

Q: Given `S=C(Nc1ccccc1)Nc1ccccc1Cl` , state whether its inhibition at 125 µg/mL is at least 40%.
A: 0 (no)

Q: Given `S=C(Nc1ccccc1)Nc1ccc(Cl)cc1` , state whether its inhibition at 125 µg/mL is at least 40%.
A: 1 (yes)

Q: Given `CC(C)CNC(=S)NC1CCCCC1` , state whether its inhibition at 125 µg/mL is at least 40%.
A: 1 (yes)

Q: Given `CCCCN(CCCC)C(=S)Nc1ccccc1` , state whether its inhibition at 125 µg/mL is at least 40%.
A: 1 (yes)

###

# Subject Of Test: AChE (Electrophorus electricus)
# Construct: The enzyme AChE is derived from Electric eel and BChE from equine serum; from tissue
# Assay Method Text: biochemical
# Condition Parameters: Conc. 500 µg/mL
What inhibition at 500 µg/mL was measured for each of the following?
Please state the figure in %; there is no need to write the unit.

Observed inhibition at 500 µg/mL on AChE (Electrophorus electricus), entry `S=C(Nc1cccc(Cl)c1)NC1CCCCC1` , equals 67.4

Observed inhibition at 500 µg/mL on AChE (Electrophorus electricus), entry `CC(C)CNC(=S)NC1CCCCC1` , equals 63.9

Observed inhibition at 500 µg/mL on AChE (Electrophorus electricus), entry `S=C(Nc1ccccc1)Nc1ccc(Cl)cc1` , equals 61.6

Observed inhibition at 500 µg/mL on AChE (Electrophorus electricus), entry `S=C(Nc1ccccc1)Nc1ccccc1Cl` , equals 59.7

Observed inhibition at 500 µg/mL on AChE (Electrophorus electricus), entry `CC(C)(C)NC(=S)NC1CCCCC1` , equals 56.3

Observed inhibition at 500 µg/mL on AChE (Electrophorus electricus), entry `CCCCN(CCCC)C(=S)Nc1ccccc1` , equals 85.4

###

# Subject Of Test: BChE (Equus caballus)
# Construct: The enzyme AChE is derived from Electric eel and BChE from equine serum
# Assay Method Text: Ellman's assay, BChE inhibition
Assay Readout: IC50 (µM)
Please state the figure in µM; there is no need to write the unit.

Observed IC50 on BChE (Equus caballus), entry `S=C(Nc1ccccc1)Nc1ccccc1Cl` , equals 1180

Observed IC50 on BChE (Equus caballus), entry `S=C(Nc1ccccc1)Nc1ccc(Cl)cc1` , equals 1010

Observed IC50 on BChE (Equus caballus), entry `S=C(Nc1cccc(Cl)c1)NC1CCCCC1` , equals 223

Observed IC50 on BChE (Equus caballus), entry `CCCCN(CCCC)C(=S)Nc1ccccc1` , equals 238

Observed IC50 on BChE (Equus caballus), entry `CC(C)CNC(=S)NC1CCCCC1` , equals 392

Observed IC50 on BChE (Equus caballus), entry `CC(C)(C)NC(=S)NC1CCCCC1` , equals 863

###

What inhibition at 500 µg/mL was measured for each of the following?
# Subject Of Test: BChE (Equus caballus)
# Construct: The enzyme AChE is derived from Electric eel and BChE from equine serum; from tissue; host or cells: equine serum
# Assay Method Text: Ellman's assay, BChE inhibition
# Format: biochemical
# Condition Parameters: Conc. 500 µg/mL
Please state the figure in %; there is no need to write the unit.

# inhibition at 500 µg/mL (molecule: CCCCN(CCCC)C(=S)Nc1ccccc1 [Compound 4, 1-(1,1-dibutyl)-3-phenylthiourea] ) is 94.4

# inhibition at 500 µg/mL (molecule: CC(C)(C)NC(=S)NC1CCCCC1 [Compound 2, 1-tert-butyl-3-cyclohexylthiourea] ) is 57.9

# inhibition at 500 µg/mL (molecule: S=C(Nc1cccc(Cl)c1)NC1CCCCC1 [Compound 3, 1-(3-chlorophenyl)-3-cyclohexylthiourea] ) is 71.3

# inhibition at 500 µg/mL (molecule: CC(C)CNC(=S)NC1CCCCC1 [Compound 1, 1-isobutyl-3-cyclohexylthiourea] ) is 66.2

# inhibition at 500 µg/mL (molecule: S=C(Nc1ccccc1)Nc1ccc(Cl)cc1 [Compound 6, 1-(4-chlorophenyl)-3-phenylthiourea] ) is 63

# inhibition at 500 µg/mL (molecule: S=C(Nc1ccccc1)Nc1ccccc1Cl [Compound 5, 1-(2-chlorophenyl)-3-phenylthiourea] ) is 63.9

###

What inhibition at 62.5 µg/mL was measured for each of the following?
# Subject Of Test: BChE (Equus caballus, UniProt P81908)
# Construct: The enzyme AChE is derived from Electric eel and BChE from equine serum; from tissue; host or cells: equine serum
# Assay Method Text: Ellman's assay, BChE inhibition
# Format: biochemical
# Condition Parameters: Conc. 62.5 µg/mL
Write your answer as a measured quantity: the number, then the unit.

# inhibition at 62.5 µg/mL (molecule: CCCCN(CCCC)C(=S)Nc1ccccc1 [Compound 4, 1-(1,1-dibutyl)-3-phenylthiourea] ) is 53.5%

# inhibition at 62.5 µg/mL (molecule: S=C(Nc1ccccc1)Nc1ccc(Cl)cc1 [Compound 6, 1-(4-chlorophenyl)-3-phenylthiourea] ) is 33%

# inhibition at 62.5 µg/mL (molecule: CC(C)CNC(=S)NC1CCCCC1 [Compound 1, 1-isobutyl-3-cyclohexylthiourea] ) is 46.9%

# inhibition at 62.5 µg/mL (molecule: S=C(Nc1ccccc1)Nc1ccccc1Cl [Compound 5, 1-(2-chlorophenyl)-3-phenylthiourea] ) is 31.7%

# inhibition at 62.5 µg/mL (molecule: S=C(Nc1cccc(Cl)c1)NC1CCCCC1 [Compound 3, 1-(3-chlorophenyl)-3-cyclohexylthiourea] ) is 49.9%

# inhibition at 62.5 µg/mL (molecule: CC(C)(C)NC(=S)NC1CCCCC1 [Compound 2, 1-tert-butyl-3-cyclohexylthiourea] ) is 41.3%
